tested-on: UniProt:P52333
Sequence (P52333 512-1124): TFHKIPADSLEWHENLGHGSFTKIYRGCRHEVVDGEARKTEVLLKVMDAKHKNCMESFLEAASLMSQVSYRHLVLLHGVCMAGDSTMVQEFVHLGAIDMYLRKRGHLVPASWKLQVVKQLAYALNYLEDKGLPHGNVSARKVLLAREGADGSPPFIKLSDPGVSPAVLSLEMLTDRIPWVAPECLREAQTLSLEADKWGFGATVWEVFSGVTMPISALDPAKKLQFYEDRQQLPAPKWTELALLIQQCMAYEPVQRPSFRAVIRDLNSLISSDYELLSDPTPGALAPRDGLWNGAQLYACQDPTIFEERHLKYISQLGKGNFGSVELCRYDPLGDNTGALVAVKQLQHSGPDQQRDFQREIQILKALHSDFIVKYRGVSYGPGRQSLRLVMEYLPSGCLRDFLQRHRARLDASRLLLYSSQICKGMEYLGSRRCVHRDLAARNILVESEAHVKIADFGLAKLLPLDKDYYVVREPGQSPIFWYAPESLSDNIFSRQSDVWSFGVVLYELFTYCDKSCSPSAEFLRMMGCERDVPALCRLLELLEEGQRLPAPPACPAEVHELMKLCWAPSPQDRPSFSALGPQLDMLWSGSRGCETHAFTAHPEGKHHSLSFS
Hi there, I'd appreciate the recorded log10(IC50) for every entry that follows.
Would you kindly interpret these values as log10 of IC50 expressed in nM?

Input line: Endpoint output: log10(IC50) of CCOC(=O)N1CC(c2nc3cnc4[nH]ccc4c3n2[C@H]2CC[C@H](CC#N)CC2)C1 . Value?
Output line: 3.04

Input line: // returns reported log10(IC50) for input N#CC[C@H]1CC[C@H](n2c(C(=O)N3CCOCC3)nc3cnc4[nH]ccc4c32)CC1
Output line: 3.36

Input line: Look up log10(IC50) for this compound: N#CC[C@H]1CC[C@H](n2c(CNC(=O)Oc3ccccc3)nc3cnc4[nH]ccc4c32)CC1
Output line: 2.33

Input line: Which measured log10(IC50) value corresponds to N#CC[C@H]1CC[C@H](n2c(CN/C(Cc3ccccc3)=N\O)nc3cnc4[nH]ccc4c32)CC1 ?
Output line: 2.66

Input line: Reported log10(IC50), compound CS(=O)(=O)c1ccc(-c2ccc(-c3nc4cnc5[nH]ccc5c4n3[C@H]3CC[C@H](CC#N)CC3)cc2)cc1 : ____
Output line: 2.93

# map each compound to its log10(IC50)
1. COC1CCN(C(=O)Cc2nc3cnc4[nH]ccc4c3n2[C@H]2CC[C@H](CC#N)CC2)CC1
2. N#CC[C@H]1CC[C@H](n2c(CC(=O)NCC3(O)CCC3)nc3cnc4[nH]ccc4c32)CC1
3. N#CC[C@H]1CC[C@H](n2c(-c3ncc[nH]3)nc3cnc4[nH]ccc4c32)CC1

Output line:
[2.12, 1.63, 1.52]
